Reported EC50 values follow for various binders
Target: T1, cynomolgus 4-1BB-His protein (cynomolgus, UniProt A9YYE7 24-186)
T1 construct: Recombinant His-tagged protein; also called cyno 4-1BB antigen; not shown: His tag
T1 sequence: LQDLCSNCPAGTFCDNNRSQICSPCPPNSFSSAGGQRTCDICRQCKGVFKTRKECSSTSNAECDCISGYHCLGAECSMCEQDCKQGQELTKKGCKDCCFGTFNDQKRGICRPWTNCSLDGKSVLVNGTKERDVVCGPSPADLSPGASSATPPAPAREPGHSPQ
Assay: ELISA, plate coated with cynomolgus 4-1BB-His, anti-human IgG-HRP
recorded-endpoint: EC50

• B164 chimeric mAb (VHH, Alpaca VHH tested as 'chimeric mAb') VHH: EVQLVESGGGLVQAGGSLRLSCAASGSIFSYMFWYRQPQGKQREYVAHITSGGRTNYADSVTGRFTISRGNNDNTMYLQMNNLKPEDTAVYYCAADDAVYTDRTYWGQGTQVTVSS = 0.00481 µg/mL
• B16 chimeric mAb (VHH, Alpaca VHH tested as 'chimeric mAb') VHH: QVQLVESGGGLVQPGGSLRLSCAASGFTLDYYAIGWFRQAPGKEREGVSCISSSDGSTYYADSVKGRFTISRDNAKNTVYLQMNSLKPEDTAVYYCATDTTTRCPIWSYYVESDYWGQGTQVTVSS = 0.0195 µg/mL
